Hey, just so you know, these numbers are from the supplement of paper PMC6004109.

System: Candida glabrata ZIM 2344 (RPMI)
PROTOCOL SUMMARY: Bliss independence sum of statistically significant ΔE (measured minus predicted growth inhibition) over checkerboard surface (fraction (sum of ΔE; 1 = 100%)); higher = more synergy
STATED CONDITIONS: temperature: 37 °C
So I've got a bunch of molecules here, and I need their Bliss independence sum values.

# MOLECULE, TARGET UNDER TEST, Bliss independence sum
measured = [
    ("CC1(C)S[C@@H]2[C@H](NC(=O)[C@H](N)c3ccc(O)cc3)C(=O)N2[C@H]1C(=O)O [amoxicillin] + C[C@@H]1[C@H](O)[C@@H](C)/C=C/C=C/C=C/C=C/C=C/C=C/C=C/[C@H](O[C@@H]2O[C@H](C)[C@@H](O)[C@H](N)[C@@H]2O)C[C@@H]2O[C@](O)(C[C@@H](O)C[C@@H](O)[C@H](O)CC[C@@H](O)C[C@@H](O)CC(=O)O[C@H]1C)C[C@H](O)[C@H]2C(=O)O [amphotericin B]", "Candida glabrata ZIM 2344 (RPMI)", 1.9),
    ("C=CC[C@@H]1/C=C(\\C)C[C@H](C)C[C@H](OC)[C@H]2O[C@@](O)(C(=O)C(=O)N3CCCC[C@H]3C(=O)O[C@H](/C(C)=C/[C@@H]3CC[C@@H](O)[C@H](OC)C3)[C@H](C)[C@@H](O)CC1=O)[C@H](C)C[C@@H]2OC [tacrolimus] + OC(Cn1cncn1)(Cn1cncn1)c1ccc(F)cc1F [fluconazole]", "Candida glabrata ZIM 2344 (RPMI)", 4.23),
]

Shift focus to the following entry.
Data request: Can you look up the measured Bliss independence sum of COc1c(C)c2c(c(O)c1C/C=C(\C)CCC(=O)O)C(=O)OC2 [mycophenolic acid] + OC(Cn1cncn1)(Cn1cncn1)c1ccc(F)cc1F [fluconazole] for me?
Data returned: 6.94

###

System: Candida glabrata ZIM 2385 (RPMI)
PROTOCOL SUMMARY: Bliss independence sum of statistically significant ΔE (measured minus predicted growth inhibition) over checkerboard surface (fraction (sum of ΔE; 1 = 100%)); higher = more synergy
STATED CONDITIONS: temperature: 37 °C
MEASURED METRIC: Bliss independence sum
One number for each entry.

# return Bliss independence sum for each item in the list
1. CC1(C)S[C@@H]2[C@H](NC(=O)[C@H](N)c3ccc(O)cc3)C(=O)N2[C@H]1C(=O)O [amoxicillin] + CCC(C)n1ncn(-c2ccc(N3CCN(c4ccc(OCC5COC(Cn6cncn6)(c6ccc(Cl)cc6Cl)O5)cc4)CC3)cc2)c1=O [itraconazole]
2. CC1(C)S[C@@H]2[C@H](NC(=O)[C@H](N)c3ccc(O)cc3)C(=O)N2[C@H]1C(=O)O [amoxicillin] + OC(Cn1cncn1)(Cn1cncn1)c1ccc(F)cc1F [fluconazole]
3. C=CC[C@@H]1/C=C(\C)C[C@H](C)C[C@H](OC)[C@H]2O[C@@](O)(C(=O)C(=O)N3CCCC[C@H]3C(=O)O[C@H](/C(C)=C/[C@@H]3CC[C@@H](O)[C@H](OC)C3)[C@H](C)[C@@H](O)CC1=O)[C@H](C)C[C@@H]2OC [tacrolimus] + CCC(C)n1ncn(-c2ccc(N3CCN(c4ccc(OCC5COC(Cn6cncn6)(c6ccc(Cl)cc6Cl)O5)cc4)CC3)cc2)c1=O [itraconazole]
4. COc1c(C)c2c(c(O)c1C/C=C(\C)CCC(=O)O)C(=O)OC2 [mycophenolic acid] + OC(Cn1cncn1)(Cn1cncn1)c1ccc(F)cc1F [fluconazole]

Data returned:
1: -0.894; 2: 1.92; 3: 5.63; 4: -0.722

Data request: Please state recorded Bliss independence sum (tested on Candida glabrata ZIM 2385 (RPMI)) of COc1c(C)c2c(c(O)c1C/C=C(\C)CCC(=O)O)C(=O)OC2 [mycophenolic acid] + CCC(C)n1ncn(-c2ccc(N3CCN(c4ccc(OCC5COC(Cn6cncn6)(c6ccc(Cl)cc6Cl)O5)cc4)CC3)cc2)c1=O [itraconazole]
Data returned: 3.12

###

So I've got a bunch of compounds here, and I need their Bliss independence sum values.
System: Saccharomyces cerevisiae ZIM 2260 (RPMI)
PROTOCOL SUMMARY: Bliss independence sum of statistically significant ΔE (measured minus predicted growth inhibition) over checkerboard surface (fraction (sum of ΔE; 1 = 100%)); higher = more synergy
STATED CONDITIONS: temperature: 37 °C
Give bare numbers.

# COMPOUND, MEASURED METRIC, RESULT NUMBER
records = [
    ("COc1c(C)c2c(c(O)c1C/C=C(\\C)CCC(=O)O)C(=O)OC2 [mycophenolic acid] + OC(Cn1cncn1)(Cn1cncn1)c1ccc(F)cc1F [fluconazole]", "Bliss independence sum", -1.55),
    ("COc1c(C)c2c(c(O)c1C/C=C(\\C)CCC(=O)O)C(=O)OC2 [mycophenolic acid] + C[C@@H]1[C@H](O)[C@@H](C)/C=C/C=C/C=C/C=C/C=C/C=C/C=C/[C@H](O[C@@H]2O[C@H](C)[C@@H](O)[C@H](N)[C@@H]2O)C[C@@H]2O[C@](O)(C[C@@H](O)C[C@@H](O)[C@H](O)CC[C@@H](O)C[C@@H](O)CC(=O)O[C@H]1C)C[C@H](O)[C@H]2C(=O)O [amphotericin B]", "Bliss independence sum", 3.32),
    ("CC1(C)S[C@@H]2[C@H](NC(=O)[C@H](N)c3ccc(O)cc3)C(=O)N2[C@H]1C(=O)O [amoxicillin] + C[C@@H]1[C@H](O)[C@@H](C)/C=C/C=C/C=C/C=C/C=C/C=C/C=C/[C@H](O[C@@H]2O[C@H](C)[C@@H](O)[C@H](N)[C@@H]2O)C[C@@H]2O[C@](O)(C[C@@H](O)C[C@@H](O)[C@H](O)CC[C@@H](O)C[C@@H](O)CC(=O)O[C@H]1C)C[C@H](O)[C@H]2C(=O)O [amphotericin B]", "Bliss independence sum", 0.295),
]

Data request: Can you look up the measured Bliss independence sum of CN(Cc1cnc2nc(N)nc(N)c2n1)c1ccc(C(=O)N[C@@H](CCC(=O)O)C(=O)O)cc1 [methotrexate] + OC(Cn1cncn1)(Cn1cncn1)c1ccc(F)cc1F [fluconazole] for me?
Data returned: -0.0461

###

Tested on: Saccharomyces cerevisiae ZIM 2566 (RPMI)
PROTOCOL SUMMARY: Bliss independence sum of statistically significant ΔE (measured minus predicted growth inhibition) over checkerboard surface (fraction (sum of ΔE; 1 = 100%)); higher = more synergy
STATED CONDITIONS: temperature: 37 °C
So I've got a bunch of molecules here, and I need their Bliss independence sum values.

Answered examples (3):
# MOLECULE, Bliss independence sum
rows = [
    ("CN(Cc1cnc2nc(N)nc(N)c2n1)c1ccc(C(=O)N[C@@H](CCC(=O)O)C(=O)O)cc1 [methotrexate] + OC(Cn1cncn1)(Cn1cncn1)c1ccc(F)cc1F [fluconazole]", -4.52),
    ("C=CC[C@@H]1/C=C(\\C)C[C@H](C)C[C@H](OC)[C@H]2O[C@@](O)(C(=O)C(=O)N3CCCC[C@H]3C(=O)O[C@H](/C(C)=C/[C@@H]3CC[C@@H](O)[C@H](OC)C3)[C@H](C)[C@@H](O)CC1=O)[C@H](C)C[C@@H]2OC [tacrolimus] + OC(Cn1cncn1)(Cn1cncn1)c1ccc(F)cc1F [fluconazole]", 0.935),
    ("COc1c(C)c2c(c(O)c1C/C=C(\\C)CCC(=O)O)C(=O)OC2 [mycophenolic acid] + OC(Cn1cncn1)(Cn1cncn1)c1ccc(F)cc1F [fluconazole]", -0.316),
]

Shift focus to the following entry.
Data request: Can you look up the measured Bliss independence sum of CC1(C)S[C@@H]2[C@H](NC(=O)[C@H](N)c3ccc(O)cc3)C(=O)N2[C@H]1C(=O)O [amoxicillin] + OC(Cn1cncn1)(Cn1cncn1)c1ccc(F)cc1F [fluconazole] for me?
Data returned: 0.455

###

So I've got a bunch of compounds here, and I need their Bliss independence sum values.
Tested on: Saccharomyces cerevisiae ZIM 2260 (RPMI)
PROTOCOL SUMMARY: Bliss independence sum of statistically significant ΔE (measured minus predicted growth inhibition) over checkerboard surface (fraction (sum of ΔE; 1 = 100%)); higher = more synergy
STATED CONDITIONS: temperature: 37 °C
Numbers only.

# COMPOUND, RESULT NUMBER
measured = [
    ("CN(Cc1cnc2nc(N)nc(N)c2n1)c1ccc(C(=O)N[C@@H](CCC(=O)O)C(=O)O)cc1 [methotrexate] + C[C@@H]1[C@H](O)[C@@H](C)/C=C/C=C/C=C/C=C/C=C/C=C/C=C/[C@H](O[C@@H]2O[C@H](C)[C@@H](O)[C@H](N)[C@@H]2O)C[C@@H]2O[C@](O)(C[C@@H](O)C[C@@H](O)[C@H](O)CC[C@@H](O)C[C@@H](O)CC(=O)O[C@H]1C)C[C@H](O)[C@H]2C(=O)O [amphotericin B]", 2),
    ("CN(Cc1cnc2nc(N)nc(N)c2n1)c1ccc(C(=O)N[C@@H](CCC(=O)O)C(=O)O)cc1 [methotrexate] + CCC(C)n1ncn(-c2ccc(N3CCN(c4ccc(OCC5COC(Cn6cncn6)(c6ccc(Cl)cc6Cl)O5)cc4)CC3)cc2)c1=O [itraconazole]", -0.71),
    ("C=CC[C@@H]1/C=C(\\C)C[C@H](C)C[C@H](OC)[C@H]2O[C@@](O)(C(=O)C(=O)N3CCCC[C@H]3C(=O)O[C@H](/C(C)=C/[C@@H]3CC[C@@H](O)[C@H](OC)C3)[C@H](C)[C@@H](O)CC1=O)[C@H](C)C[C@@H]2OC [tacrolimus] + OC(Cn1cncn1)(Cn1cncn1)c1ccc(F)cc1F [fluconazole]", 6.04),
]

# return Bliss independence sum for each item in the list
1. CC1(C)S[C@@H]2[C@H](NC(=O)[C@H](N)c3ccc(O)cc3)C(=O)N2[C@H]1C(=O)O [amoxicillin] + CCC(C)n1ncn(-c2ccc(N3CCN(c4ccc(OCC5COC(Cn6cncn6)(c6ccc(Cl)cc6Cl)O5)cc4)CC3)cc2)c1=O [itraconazole]
2. C=CC[C@@H]1/C=C(\C)C[C@H](C)C[C@H](OC)[C@H]2O[C@@](O)(C(=O)C(=O)N3CCCC[C@H]3C(=O)O[C@H](/C(C)=C/[C@@H]3CC[C@@H](O)[C@H](OC)C3)[C@H](C)[C@@H](O)CC1=O)[C@H](C)C[C@@H]2OC [tacrolimus] + CCC(C)n1ncn(-c2ccc(N3CCN(c4ccc(OCC5COC(Cn6cncn6)(c6ccc(Cl)cc6Cl)O5)cc4)CC3)cc2)c1=O [itraconazole]

Data returned:
1. 0.613
2. 10.8

Data request: Can you look up the measured Bliss independence sum of COc1c(C)c2c(c(O)c1C/C=C(\C)CCC(=O)O)C(=O)OC2 [mycophenolic acid] + CCC(C)n1ncn(-c2ccc(N3CCN(c4ccc(OCC5COC(Cn6cncn6)(c6ccc(Cl)cc6Cl)O5)cc4)CC3)cc2)c1=O [itraconazole] for me?
Data returned: -2.11
